The origin of these recorded values is paper PMC4336329.

Each entry below carries its reported hERG current change (%, negative = inhibition) at 10uM.
# target: human ether-à-go-go-related gene (hERG) potassium channel (human, UniProt Q12809);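 also: peak tail current of the secondary pulse compared with the same well before compound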
# Sequence (Q12809 whole entry, looked up): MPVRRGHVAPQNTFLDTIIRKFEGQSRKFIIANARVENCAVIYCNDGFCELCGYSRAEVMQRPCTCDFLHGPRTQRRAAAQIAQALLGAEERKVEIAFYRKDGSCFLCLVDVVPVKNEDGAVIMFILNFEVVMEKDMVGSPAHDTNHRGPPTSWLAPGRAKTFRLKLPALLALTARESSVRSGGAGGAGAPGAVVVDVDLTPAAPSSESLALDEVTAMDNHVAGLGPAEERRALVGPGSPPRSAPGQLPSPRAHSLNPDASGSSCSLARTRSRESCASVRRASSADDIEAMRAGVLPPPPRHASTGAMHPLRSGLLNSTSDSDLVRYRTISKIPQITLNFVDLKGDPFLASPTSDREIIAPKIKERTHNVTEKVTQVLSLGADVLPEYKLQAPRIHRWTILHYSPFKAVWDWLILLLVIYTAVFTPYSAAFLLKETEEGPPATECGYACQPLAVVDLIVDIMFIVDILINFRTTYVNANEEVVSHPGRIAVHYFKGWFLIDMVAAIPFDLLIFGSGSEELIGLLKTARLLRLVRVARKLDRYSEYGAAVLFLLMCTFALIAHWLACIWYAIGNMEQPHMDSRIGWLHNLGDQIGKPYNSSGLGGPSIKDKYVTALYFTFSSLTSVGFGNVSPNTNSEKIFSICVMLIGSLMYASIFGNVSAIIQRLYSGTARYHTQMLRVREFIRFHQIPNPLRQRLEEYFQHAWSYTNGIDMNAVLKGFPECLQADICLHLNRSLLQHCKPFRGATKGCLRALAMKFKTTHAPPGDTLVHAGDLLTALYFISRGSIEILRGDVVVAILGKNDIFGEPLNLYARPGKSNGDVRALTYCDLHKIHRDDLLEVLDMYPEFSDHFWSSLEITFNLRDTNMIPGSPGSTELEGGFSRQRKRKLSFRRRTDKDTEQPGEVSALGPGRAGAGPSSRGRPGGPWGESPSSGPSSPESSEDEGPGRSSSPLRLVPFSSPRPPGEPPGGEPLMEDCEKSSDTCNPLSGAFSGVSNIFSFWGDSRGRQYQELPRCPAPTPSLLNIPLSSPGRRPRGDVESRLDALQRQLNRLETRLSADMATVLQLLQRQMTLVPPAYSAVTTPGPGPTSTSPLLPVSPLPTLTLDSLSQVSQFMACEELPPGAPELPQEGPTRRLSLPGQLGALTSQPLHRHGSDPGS
# test_description: primary screen, population patch clamp on CHO cells stably expressing hERG; higher = less effect of the substance
The campaign covered roughly 310,000 compounds. About 14,000 (4.5%) showed an effect of 50% or more. Effects have a minus sign here. The full list was thinned out, with strong results kept by preference.
measurement_type: hERG current change (%, negative = inhibition) at 10uM

- molecule: "CCCCCCn1c(NCC)nc2c1c(=O)[nH]c(=O)n2C"
  obs_value: "-14.7%"
- molecule: "CCOC(=O)c1c(NC(C)=O)sc2c(OCC(O)CNC(C)(C)C)c(Br)ccc12 (stereo not shown)"
  obs_value: "-11.8%"
- molecule: "CCOC(=O)N1CCC(NC(=O)CC2C(=O)NCCN2Cc2ccccc2F)CC1 (stereo not shown)"
  obs_value: "11.8%"
- molecule: "Cc1ccc2cc(CCNS(=O)(=O)c3ccc(F)cc3)c(=O)[nH]c2c1C"
  obs_value: "10.9%"
- molecule: "CCCCCCn1c(N(CC)CC)nc2c1c(=O)[nH]c(=O)n2C"
  obs_value: "-63.6%"
- molecule: "CCOC(=O)C1CN(S(=O)(=O)c2ccc(OC)cc2)c2cc(S(=O)(=O)CC)ccc2O1 (stereo not shown)"
  obs_value: "-52%"
- molecule: "CC(=C/c1ccco1)/C=N/NC(=O)Cc1cccn1C"
  obs_value: "-6.63%"
- molecule: "CCOC(=O)c1c(NC(C)=O)sc2c(O)c(Br)ccc12"
  obs_value: "6.88%"
- molecule: "COC(=O)COc1cccc(/C=N/NC(=O)CCSc2ccccc2)c1"
  obs_value: "-15.7%"
- molecule: "CC(/C=N/NC(=O)CN1CCN(Cc2ccc(Cl)cc2)CC1)=C\\c1ccco1"
  obs_value: "-69.2%"
- molecule: "O=C(OCC(=O)N1CCCC1=O)C1CCN(S(=O)(=O)c2c(Cl)cccc2Cl)CC1"
  obs_value: "-36.1%"
- molecule: "CC(C)CC(=O)N/N=C/c1c(N)n(C)c(=O)n(C)c1=O"
  obs_value: "21.7%"
- molecule: "O=C(Nc1cccc(S(=O)(=O)NC2=NCCC2)c1)c1ccc(=O)[nH]c1"
  obs_value: "10.7%"
- molecule: "CCOC(=O)c1c(NC(C)=O)sc2c(OCC(O)CN(CC)CC)c(Br)ccc12 (stereo not shown)"
  obs_value: "-51.3%"
- molecule: "COC(=O)c1c(S(C)(=O)=O)nc(-c2ccccc2)[nH]c1=O"
  obs_value: "-2.13%"
- molecule: "O=C(CCc1nc2ccccc2c(=O)[nH]1)NNC(=O)COc1cccc(F)c1"
  obs_value: "-1.88%"
- molecule: "N#Cc1ccc(-c2csc(NNC(=O)c3ccccc3)n2)cc1"
  obs_value: "0.0899%"
- molecule: "COc1ccc(/C=C/C(=O)Nc2ccccc2C(=O)NCC(c2ccc(OC)cc2)N(C)C)cc1 (stereo not shown)"
  obs_value: "-49.6%"
- molecule: "CCOc1ccc(S(=O)(=O)N2CCCCC2)cc1NS(=O)(=O)c1cccs1"
  obs_value: "4.67%"
- molecule: "Cc1ccc(S(=O)(=O)N2CCN(CC(=O)N(CC(C)C)c3c(N)n(CC(C)C)c(=O)[nH]c3=O)CC2)c(C)c1"
  obs_value: "12.7%"
- molecule: "CCOC(=O)c1c(NC(C)=O)sc2c(OC)c(Br)ccc12"
  obs_value: "2.16%"
- molecule: "O=C(CSc1nnc(-c2ccncc2)n1Cc1ccco1)Nc1nccs1"
  obs_value: "-27%"
- molecule: "CCOC(=O)C1(Cc2cccc(F)c2)CCN(C2CCOCC2)CC1"
  obs_value: "-63.5%"
- molecule: "O=C(CNC(=O)c1ccccc1F)OCc1nc2ccccc2s1"
  obs_value: "20.6%"
- molecule: "O=C(CN1CCN(Cc2ccccc2)CC1)N/N=C\\C=C/c1ccco1"
  obs_value: "-26.9%"
- molecule: "CC(/C=N\\NC(=O)CN1CCN(Cc2ccccc2)CC1)=C\\c1ccco1"
  obs_value: "-53.6%"
- molecule: "Cc1csc(NC(=O)CSc2nccn2Cc2ccco2)n1"
  obs_value: "4.55%"
- molecule: "Cc1csc(NC(=O)CSc2nnc(C)n2Cc2ccco2)n1"
  obs_value: "-1.85%"
- molecule: "Cc1occc1-c1nnc(SCC(=O)Nc2nccs2)n1Cc1ccco1"
  obs_value: "-75.4%"
- molecule: "O=c1c2oc3ccccc3c2[nH]c(=S)n1-c1ccc(F)cc1"
  obs_value: "25.3%"
- molecule: "CSc1cc(C)nc(N(C)C(C)=O)n1"
  obs_value: "27.1%"
- molecule: "CCOC(=O)C1(Cc2cccc(OC)c2)CCN(C2CCOCC2)CC1"
  obs_value: "-68.7%"
- molecule: "Cc1ccc(C(C(=O)NCc2ccco2)N(C(=O)CNC(=O)c2cccs2)c2ccc(C)cc2)cc1 (stereo not shown)"
  obs_value: "27.3%"
- molecule: "O=C(NCCCn1ccnc1)C(=O)NCC(c1ccco1)N1CCN(c2ccccc2)CC1 (stereo not shown)"
  obs_value: "1.01%"
- molecule: "O=C(NCCNC(=O)c1ccccn1)c1cccc(F)c1"
  obs_value: "23.7%"
- molecule: "O=C(N/N=C/c1ccc(Br)s1)c1cccc([N+](=O)[O-])c1"
  obs_value: "12.2%"
- molecule: "Cc1nn(C)cc1/C=N/NC(=O)Cn1nccc1C"
  obs_value: "-1.28%"
- molecule: "COc1ccc([C@@H]2[C@@H]3C(=O)N(C(C)(C)C)C(=O)[C@@H]3[C@]3(Cc4ccc(Cl)cc4)C(=O)N(c4ccc(Br)cc4)C(=O)N23)cc1"
  obs_value: "2.7%"
- molecule: "CN(C)S(=O)(=O)c1ccc(C(=O)NCC(=O)N/N=C/c2ccccc2Cl)cc1"
  obs_value: "5.43%"
- molecule: "N#Cc1ccccc1Sc1ccccc1C(=O)Nc1ccc2ccccc2c1"
  obs_value: "15.8%"
